Target: CD28 (Homo sapiens, UniProt P10747)
Test: Jurkat/IL2 + CHO/OKT3 +/- PD-L1 reporter assay: PD-L1-dependent CD28 costimulation
Assay type: cell-based
Parameters: host or cells: Jurkat cells expressing an IL-2-luciferase reporter
Conditions: Table E22; Jurkat/IL2 + CHO/OKT3/PD-L1; CD80 Conc 5.0 nM
# note: exactly 700 RLU is not below, so it is f; use t for Relative Luciferase Units (RLU), CD80 Conc 5.0 nM strictly under it

{"molecule": "A26E/E35D/M47L/D90G (protein) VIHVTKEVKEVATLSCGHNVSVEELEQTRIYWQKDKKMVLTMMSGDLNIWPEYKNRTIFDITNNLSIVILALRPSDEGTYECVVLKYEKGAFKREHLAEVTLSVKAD", "cat": "f"}
{"molecule": "A26E/V68M/A71G/D90G (protein) VIHVTKEVKEVATLSCGHNVSVEELEQTRIYWQKEKKMVLTMMSGDMNIWPEYKNRTIFDITNNLSIMILGLRPSDEGTYECVVLKYEKGAFKREHLAEVTLSVKAD", "cat": "t"}
{"molecule": "H18Y/E35D/A71G/D90G (protein) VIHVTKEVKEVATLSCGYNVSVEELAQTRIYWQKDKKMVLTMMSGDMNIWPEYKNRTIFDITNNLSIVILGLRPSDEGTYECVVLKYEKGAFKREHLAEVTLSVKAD", "cat": "f"}
{"molecule": "H18Y/M47L/A71G/D90G (protein) VIHVTKEVKEVATLSCGYNVSVEELAQTRIYWQKEKKMVLTMMSGDLNIWPEYKNRTIFDITNNLSIVILGLRPSDEGTYECVVLKYEKGAFKREHLAEVTLSVKAD", "cat": "t"}
{"molecule": "H18Y/A26E/V68M/A71G (protein) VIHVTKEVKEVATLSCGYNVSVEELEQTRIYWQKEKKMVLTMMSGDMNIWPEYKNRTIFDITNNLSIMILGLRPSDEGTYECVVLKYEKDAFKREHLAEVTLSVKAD", "cat": "t"}

This collection of values is drawn from patent US20220177587A1.
